- Measurement target: Polypeptide N-acetylgalactosaminyltransferase 10 (Homo sapiens)
- Sequence (Q86SR1 whole entry): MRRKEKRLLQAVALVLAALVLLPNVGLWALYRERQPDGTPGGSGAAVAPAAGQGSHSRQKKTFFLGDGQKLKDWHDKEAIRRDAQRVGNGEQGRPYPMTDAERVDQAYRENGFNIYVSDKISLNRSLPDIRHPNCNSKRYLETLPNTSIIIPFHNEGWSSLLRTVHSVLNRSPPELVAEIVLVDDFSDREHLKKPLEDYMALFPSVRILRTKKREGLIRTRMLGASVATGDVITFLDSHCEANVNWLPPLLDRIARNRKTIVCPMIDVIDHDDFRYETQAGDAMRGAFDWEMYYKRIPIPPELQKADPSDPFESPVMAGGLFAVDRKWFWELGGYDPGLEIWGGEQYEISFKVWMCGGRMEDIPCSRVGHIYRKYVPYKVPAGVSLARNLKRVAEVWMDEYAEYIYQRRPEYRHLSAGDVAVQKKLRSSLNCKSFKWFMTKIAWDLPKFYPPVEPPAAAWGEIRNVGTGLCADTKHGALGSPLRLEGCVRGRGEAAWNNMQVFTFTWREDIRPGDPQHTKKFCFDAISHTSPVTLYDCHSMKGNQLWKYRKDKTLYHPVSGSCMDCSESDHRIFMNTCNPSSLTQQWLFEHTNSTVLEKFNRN
Property: pIC50
// pIC50: -log10(molar conc.)

Report pIC50 for O=c1oc2c(O)c(O)ccc2c2cc(O)c(O)cc12
6.48

---

- Measurement target: Polypeptide N-acetylgalactosaminyltransferase 2 (Homo sapiens, UniProt Q10471)
- Sequence (Q10471 whole entry): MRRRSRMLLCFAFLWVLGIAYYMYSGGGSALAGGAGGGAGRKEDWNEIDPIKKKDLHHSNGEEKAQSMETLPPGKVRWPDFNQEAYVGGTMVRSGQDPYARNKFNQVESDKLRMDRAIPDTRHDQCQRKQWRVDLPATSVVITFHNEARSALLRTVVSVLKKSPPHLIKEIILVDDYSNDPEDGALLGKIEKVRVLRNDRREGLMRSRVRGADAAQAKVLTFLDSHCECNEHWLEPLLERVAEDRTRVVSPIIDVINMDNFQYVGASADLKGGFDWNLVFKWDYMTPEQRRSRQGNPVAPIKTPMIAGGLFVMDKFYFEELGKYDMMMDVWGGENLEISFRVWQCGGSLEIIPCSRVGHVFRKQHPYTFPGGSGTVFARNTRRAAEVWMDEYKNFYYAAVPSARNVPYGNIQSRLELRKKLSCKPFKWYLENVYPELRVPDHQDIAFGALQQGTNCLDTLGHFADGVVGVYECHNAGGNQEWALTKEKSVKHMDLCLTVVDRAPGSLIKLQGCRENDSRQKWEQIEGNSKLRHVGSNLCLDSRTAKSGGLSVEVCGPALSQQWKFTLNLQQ
- Protocol text: Binding affinity of human recombinant FLAG-tagged ppGalNAcT2 expressed in HEK293 cells assessed as dissociation constant by SPR analysis
Property: pKd
pKd is defined as minus the log10 of a concentration measured in mol/L.

- Molecule: "O=c1oc2c(O)c(O)ccc2c2cc(O)c(O)cc12"
  Property: "pKd"
  Test result: 6.53
- Molecule: "O=c1oc2c(O)c(O)cc3c(=O)oc4c(O)c(O)cc1c4c23 [ELLAGIC ACID]"
  Property: "pKd"
  Test result: 6.43

Now look at this entry.
Specify measured pKd for O=C(O)c1cc(O)c(O)c(O)c1 [GALLIC ACID] .
6.03

---

- Measurement target: Polypeptide N-acetylgalactosaminyltransferase 6 (Homo sapiens, UniProt Q8NCL4)
- Sequence (Q8NCL4 whole entry): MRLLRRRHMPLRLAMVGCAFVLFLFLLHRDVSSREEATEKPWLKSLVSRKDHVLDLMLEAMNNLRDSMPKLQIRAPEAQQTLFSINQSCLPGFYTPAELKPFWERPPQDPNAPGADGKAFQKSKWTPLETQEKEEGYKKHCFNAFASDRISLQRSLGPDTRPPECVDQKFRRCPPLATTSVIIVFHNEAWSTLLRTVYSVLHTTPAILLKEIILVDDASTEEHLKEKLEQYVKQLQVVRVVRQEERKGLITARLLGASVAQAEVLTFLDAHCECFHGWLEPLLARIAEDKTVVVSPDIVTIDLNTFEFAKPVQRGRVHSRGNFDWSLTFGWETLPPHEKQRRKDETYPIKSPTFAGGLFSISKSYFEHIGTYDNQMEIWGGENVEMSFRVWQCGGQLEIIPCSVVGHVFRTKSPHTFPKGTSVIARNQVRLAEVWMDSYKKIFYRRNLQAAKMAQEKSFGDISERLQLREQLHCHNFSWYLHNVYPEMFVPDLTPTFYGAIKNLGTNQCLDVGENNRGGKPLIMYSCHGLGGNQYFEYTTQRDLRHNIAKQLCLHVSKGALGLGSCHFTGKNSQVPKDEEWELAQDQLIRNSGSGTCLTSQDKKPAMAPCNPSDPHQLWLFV
Property: IC50 (nM)
The figure you give is taken to be in nM; do not add the unit.

Tell me its IC50 given O=c1oc2c(O)c(O)ccc2c2cc(O)c(O)cc12 as the entry.
1830

---

- Measurement target: Polypeptide N-acetylgalactosaminyltransferase 2 (Homo sapiens, UniProt Q10471, W282A)
- Sequence (Q10471 whole entry W282A): as the sequence (Q10471 whole entry) above, with W282A counted along it
- Protocol text: Inhibition of catalytic activity of human recombinant FLAG-tagged ppGalNAcT2 W282A mutant expressed in HEK293 cells using EA2 peptide as substrate by HPLC-based enzyme assay
IC50: recorded values
Output spec: scalar in µM, unitless text.

- Compound: "O=c1oc2c(O)c(O)cc3c(=O)oc4c(O)c(O)cc1c4c23 [ELLAGIC ACID]"
  IC50, µM: 2.93

Proceeding to the next compound to report its IC50.
Fill in IC50 for record O=c1oc2c(O)c(O)ccc2c2cc(O)c(O)cc12
3.12

---

Catalogue of IC50 readings, one per entry.
- Measurement target: Polypeptide N-acetylgalactosaminyltransferase 2 (Homo sapiens, UniProt Q10471)
- Protocol text: Inhibition of catalytic activity of human recombinant FLAG-tagged ppGalNAcT2 expressed in HEK293T cells and using 5-FAM labelled-EA2 peptide as substrate incubated for 30 mins by HPLC-based enzyme assay

- Compound: "c1cc2ccc3cccc4ccc(c1)c2c34 [PYRENE]"
  IC50: "> 100 µM"
- Compound: "COc1c(O)cc2c(=O)oc3c(OC)c(O)cc4c(=O)oc1c2c34"
  IC50: "> 100 µM"

Let us examine a further case.
Query IC50 for O=c1oc2cc(O)ccc2c2ccccc12
> 100 µM
